SYSTEM NAME: Glucocorticoid receptor (Homo sapiens) (UniProt P04150)
Sequence (P04150 whole entry, looked up): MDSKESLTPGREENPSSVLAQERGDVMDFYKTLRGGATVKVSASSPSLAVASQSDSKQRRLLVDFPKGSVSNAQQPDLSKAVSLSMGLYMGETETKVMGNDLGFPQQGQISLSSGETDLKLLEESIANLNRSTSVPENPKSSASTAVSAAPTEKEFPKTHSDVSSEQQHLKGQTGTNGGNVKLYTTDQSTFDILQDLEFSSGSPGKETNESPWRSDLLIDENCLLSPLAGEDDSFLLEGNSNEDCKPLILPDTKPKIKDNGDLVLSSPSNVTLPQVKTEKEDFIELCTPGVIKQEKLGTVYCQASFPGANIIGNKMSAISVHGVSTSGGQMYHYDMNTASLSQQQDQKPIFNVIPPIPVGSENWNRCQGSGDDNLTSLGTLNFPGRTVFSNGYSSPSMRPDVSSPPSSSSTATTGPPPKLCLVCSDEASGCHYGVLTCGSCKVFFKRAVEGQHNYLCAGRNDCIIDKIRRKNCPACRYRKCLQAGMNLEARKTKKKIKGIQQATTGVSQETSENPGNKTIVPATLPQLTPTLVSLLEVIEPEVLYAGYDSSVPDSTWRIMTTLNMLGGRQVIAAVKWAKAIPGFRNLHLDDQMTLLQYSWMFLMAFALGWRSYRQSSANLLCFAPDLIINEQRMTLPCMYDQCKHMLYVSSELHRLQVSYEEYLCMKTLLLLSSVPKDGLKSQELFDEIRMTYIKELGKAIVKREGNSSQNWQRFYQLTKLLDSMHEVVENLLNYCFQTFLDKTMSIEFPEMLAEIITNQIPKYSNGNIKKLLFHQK
PROCEDURE SUMMARY: qHTS assay to identify small molecule antagonists of the glucocorticoid receptor (GR) signaling pathway (AID 720692)
EXPERIMENTAL CONTEXT: GR-bla HeLa, beta-lactamase FRET ratio, dexamethasone-stimulated, 18 h; series mostly up to 58.5 µM
Results filed as inconclusive are left out. The source made the active and inactive calls. Calls come from the whole dose curve; as a rule, active = well fitted inhibition curve with a large enough effect in the signal ratio in the repeat runs (not every such curve was filed as active); inconclusive = weak or mixed curves, or effect the other way; inactive = no such curve, though single readings can be large or run the other way; the % refers to the signal ratio.
Labels: active, inactive

MOLECULE: CC(C)(c1ccc(OCC2CO2)cc1)c1ccc(OCC2CO2)cc1 (stereo not drawn)
SYSTEM NAME: Glucocorticoid receptor (Homo sapiens) (UniProt P04150)
LABEL: active
--
MOLECULE: [CH3][Sn]([Cl])([Cl])[Cl]
SYSTEM NAME: Glucocorticoid receptor (Homo sapiens) (UniProt P04150)
LABEL: inactive
--
MOLECULE: NC(=O)CN1CCCC1=O
SYSTEM NAME: Glucocorticoid receptor (Homo sapiens) (UniProt P04150)
LABEL: inactive
--
MOLECULE: C=CC(Cl)CCl (stereo not drawn)
SYSTEM NAME: Glucocorticoid receptor (Homo sapiens) (UniProt P04150)
LABEL: inactive
--
MOLECULE: CCNCC
SYSTEM NAME: Glucocorticoid receptor (Homo sapiens) (UniProt P04150)
LABEL: inactive
--
MOLECULE: CCCCCCCCCC(CC)c1ccc(S(=O)(=O)O)cc1 (stereo not drawn)
SYSTEM NAME: Glucocorticoid receptor (Homo sapiens) (UniProt P04150)
LABEL: inactive
--
MOLECULE: CCCCC(C#N)(Cn1cncn1)c1ccc(Cl)cc1 (stereo not drawn)
SYSTEM NAME: Glucocorticoid receptor (Homo sapiens) (UniProt P04150)
LABEL: inactive
--
MOLECULE: ClC(Cl)(Cl)c1ccccc1
SYSTEM NAME: Glucocorticoid receptor (Homo sapiens) (UniProt P04150)
LABEL: inactive
